Settings: in ethanol, 313.15 K
reportedEndpoint: solubility (mole fraction)
Give bare numbers.

Give solubility (mole fraction) for CCCCCCCCCCCC[N+](C)(C)CCOc1ccccc1.[Br-] 0.227

----------
Details: in NMP, 308.15 K
reportedEndpoint: solubility (mole fraction)
Give bare numbers.

Using the record for CCCCCCCCCCCC[N+](C)(C)CCOc1ccccc1.[Br-] , state its measured solubility (mole fraction). 0.0854

----------
Details: in DMSO, 318.15 K
reportedEndpoint: solubility (mole fraction)
One number for each entry.

Dear colleague, please send me the reported solubility (mole fraction) for CCCCCCCCCCCC[N+](C)(C)CCOc1ccccc1.[Br-] when you can. 0.103

----------
Conditions: in NMP, 318.15 K
reportedEndpoint: solubility (mole fraction)

Give the reported value of solubility (mole fraction) for this record: CCCCCCCCCCCC[N+](C)(C)CCOc1ccccc1.[Br-] 0.137

----------
Details: in isobutanol, 323.15 K
reportedEndpoint: solubility (mole fraction)
Give bare numbers.

Entry CCCCCCCCCCCC[N+](C)(C)CCOc1ccccc1.[Br-] needs its solubility (mole fraction) filled in; supply it. 0.287

----------
Settings: in ethanol, 308.15 K
reportedEndpoint: solubility (mole fraction)
One number for each entry.

Entry CCCCCCCCCCCC[N+](C)(C)CCOc1ccccc1.[Br-] needs its solubility (mole fraction) filled in; supply it. 0.204

----------
Conditions: in n-pentanol, 288.15 K
reportedEndpoint: solubility (mole fraction)
One number for each entry.

Quickly give me recorded solubility (mole fraction) for CCCCCCCCCCCC[N+](C)(C)CCOc1ccccc1.[Br-] 0.108

----------
Settings: in DMAc, 313.15 K
reportedEndpoint: solubility (mole fraction)
Answers are plain numbers.

Respond only with solubility (mole fraction) recorded for CCCCCCCCCCCC[N+](C)(C)CCOc1ccccc1.[Br-] 0.0786

----------
Details: in n-pentanol, 318.15 K
reportedEndpoint: solubility (mole fraction)
One number for each entry.

Using the record for CCCCCCCCCCCC[N+](C)(C)CCOc1ccccc1.[Br-] , state its measured solubility (mole fraction). 0.329

----------
Conditions: in DMAc, 323.15 K
reportedEndpoint: solubility (mole fraction)
Give bare numbers.

Assign solubility (mole fraction) to the following record: CCCCCCCCCCCC[N+](C)(C)CCOc1ccccc1.[Br-] 0.121

----------
Details: in DMSO, 313.15 K
reportedEndpoint: solubility (mole fraction)

Output measured solubility (mole fraction) for this item: CCCCCCCCCCCC[N+](C)(C)CCOc1ccccc1.[Br-] 0.0826

----------
Conditions: in acetonitrile, 318.15 K
reportedEndpoint: solubility (mole fraction)
Numbers only.

Write down solubility (mole fraction) measured for item CCCCCCCCCCCC[N+](C)(C)CCOc1ccccc1.[Br-] 0.0415

----------
Conditions: in n-butanol, 308.15 K
reportedEndpoint: solubility (mole fraction)
Give bare numbers.

Quote solubility (mole fraction) reported for CCCCCCCCCCCC[N+](C)(C)CCOc1ccccc1.[Br-] please. 0.224

----------
Details: in n-pentanol, 298.15 K
reportedEndpoint: solubility (mole fraction)

Give a short answer stating reported solubility (mole fraction) for CCCCCCCCCCCC[N+](C)(C)CCOc1ccccc1.[Br-] . 0.164

----------
Settings: in isopropanol, 313.15 K
reportedEndpoint: solubility (mole fraction)
Answers are plain numbers.

Complete the entry with solubility (mole fraction) for CCCCCCCCCCCC[N+](C)(C)CCOc1ccccc1.[Br-] 0.199

----------
Conditions: in tert-butanol, 308.15 K
reportedEndpoint: solubility (mole fraction)
Give bare numbers.

Specify reported solubility (mole fraction) for the compound shown: CCCCCCCCCCCC[N+](C)(C)CCOc1ccccc1.[Br-] 0.165

----------
Settings: in DMAc, 308.15 K
reportedEndpoint: solubility (mole fraction)

Give recorded solubility (mole fraction). CCCCCCCCCCCC[N+](C)(C)CCOc1ccccc1.[Br-] 0.0659

----------
Conditions: in DMF, 313.15 K
reportedEndpoint: solubility (mole fraction)
Give bare numbers.

Supply measured solubility (mole fraction) of CCCCCCCCCCCC[N+](C)(C)CCOc1ccccc1.[Br-] in your reply. 0.0861

----------
Conditions: in n-butanol, 283.15 K
reportedEndpoint: solubility (mole fraction)
Numbers only.

Tell me solubility (mole fraction) reported for CCCCCCCCCCCC[N+](C)(C)CCOc1ccccc1.[Br-] 0.0833

----------
Settings: in DMAc, 318.15 K
reportedEndpoint: solubility (mole fraction)
Numbers only.

Determine from records and report solubility (mole fraction) for CCCCCCCCCCCC[N+](C)(C)CCOc1ccccc1.[Br-] 0.105

----------
Settings: in isopropanol, 318.15 K
reportedEndpoint: solubility (mole fraction)
Give bare numbers.

Please give the documented solubility (mole fraction) of CCCCCCCCCCCC[N+](C)(C)CCOc1ccccc1.[Br-] 0.228

----------
Details: in ethanol, 293.15 K
reportedEndpoint: solubility (mole fraction)
Answers are plain numbers.

# return recorded solubility (mole fraction) for input CCCCCCCCCCCC[N+](C)(C)CCOc1ccccc1.[Br-] 0.13

----------
Settings: in DMSO, 303.15 K
reportedEndpoint: solubility (mole fraction)
Answers are plain numbers.

For the molecule CCCCCCCCCCCC[N+](C)(C)CCOc1ccccc1.[Br-] , give its measured solubility (mole fraction) value. 0.0551

----------
Conditions: in acetonitrile, 288.15 K
reportedEndpoint: solubility (mole fraction)
One number for each entry.

For CCCCCCCCCCCC[N+](C)(C)CCOc1ccccc1.[Br-] , write its solubility (mole fraction). 0.00562

----------
Settings: in DMSO, 293.15 K
reportedEndpoint: solubility (mole fraction)

Quote solubility (mole fraction) reported for CCCCCCCCCCCC[N+](C)(C)CCOc1ccccc1.[Br-] please. 0.037

----------
Conditions: in acetonitrile, 323.15 K
reportedEndpoint: solubility (mole fraction)
Give bare numbers.

Tell me its solubility (mole fraction) given CCCCCCCCCCCC[N+](C)(C)CCOc1ccccc1.[Br-] as the entry. 0.0625

----------
Settings: in n-pentanol, 303.15 K
reportedEndpoint: solubility (mole fraction)

Write down solubility (mole fraction) measured for item CCCCCCCCCCCC[N+](C)(C)CCOc1ccccc1.[Br-] 0.192
